Tested on: intestinal alkaline phosphatase [Mus musculus]
Experiment: mouse intestinal phosphatase enzyme activation – biochemical, luminescence, single concentration, confirmation (AID 434970)
Conditions: purified mouse IAP, CDP-Star luminescence, 30 min, at 10 µM; stronger effect = lower value
Screen size: about 11,000 compounds; about 310 (2.8%) were called active. What follows is part of a selection rich in actives, with near analogues and random picks from the rest.
Measure: activity change, negative = activation (%)

Molecule | Measure | Val
O=C(NCC(=O)N(CC1CCCO1)C1(C(=O)NC2CCCC2)CCCCC1)c1ccccc1 (stereo not drawn) | activity change, negative = activation | -3.2
FC(F)(F)c1cccc(NC(=S)NCC2COc3ccccc3O2)c1 (stereo not drawn) | activity change, negative = activation | -42.8
CCN(CC(=O)Nc1ccc2c(c1)OCO2)Cc1nc2ccccc2c(=O)[nH]1 | activity change, negative = activation | -23.5
CCOC(=O)C1=CN(Cc2ccco2)S(=O)(=O)NC1c1cccc(OC)c1 (stereo not drawn) | activity change, negative = activation | 1.35
CCOc1ccccc1NC(=O)C1CCCN(C(=O)Nc2ccccc2)C1 (stereo not drawn) | activity change, negative = activation | 3.9
O=C(Nc1ccc2nc(-c3ccc4nc[nH]c4c3)[nH]c2c1)c1cccs1 | activity change, negative = activation | -5.3
CCCNC(=O)c1ccccc1NC(=O)CN(c1ccccc1OCC)S(C)(=O)=O | activity change, negative = activation | -15.4
O=C(O)C1=C(C(=O)Nc2ccc(F)c(Cl)c2)CCCC1 | activity change, negative = activation | 2
Cc1ccc(C(=O)Nc2nncs2)cc1S(=O)(=O)N1CCOCC1 | activity change, negative = activation | 7.35
S=C(NCCNCc1ccccc1)NC1CCCCC1 | activity change, negative = activation | -18
Cc1cc(C(=O)CSc2nnc(-c3cccc(F)c3)n2N)c(C)n1Cc1ccc2c(c1)OCO2 | activity change, negative = activation | 15.2
CC(C)OC(=O)c1cccc(NC(=O)c2ccccc2)c1 | activity change, negative = activation | 1.25
O=S(=O)(NCc1cccs1)c1cccc(S(=O)(=O)N2CCCCC2)c1 | activity change, negative = activation | 9.65
CCNc1nc(NC(C)(C)C)nc(SC(C(C)=O)C(C)=O)n1 | activity change, negative = activation | -4.2
Cc1ccc(C(=O)NC(Cc2cccc(C(F)(F)F)c2)C(=O)O)cc1 (stereo not drawn) | activity change, negative = activation | -13.9
O=C(Nc1ccc(F)c(Cl)c1)C1CC(=O)n2c(nc3ccccc32)N1 (stereo not drawn) | activity change, negative = activation | -142
Cc1ccccc1NC(=O)/C(=C\c1cccs1)NC(=O)c1ccccc1 | activity change, negative = activation | -1.5
COc1ccc(CC(NC(C)=O)C(=O)NC2CCN(C(=O)c3cnccn3)CC2)cc1 (stereo not drawn) | activity change, negative = activation | 7
COC(=O)c1sc2ncn(-n3c(C)ccc3C)c(=O)c2c1C | activity change, negative = activation | -3.25
O=C(Nc1ccc(Cl)cc1)C1CC(=O)n2c(nc3ccccc32)N1 (stereo not drawn) | activity change, negative = activation | -106
CCCN(/C=N/c1sc2c(c1C#N)CCCCC2)CCC | activity change, negative = activation | 4.7
Cc1cc(C)cc(NC(=O)NC2CCN(CC(=O)Nc3cccc(Cl)c3C)CC2)c1 | activity change, negative = activation | -68.1
O=C1CC(N2CCN(c3ccccc3F)CC2)C(=O)N1c1ccc2c(c1)OCCO2 (stereo not drawn) | activity change, negative = activation | 3.6
O=C(NCc1ccccc1)c1cc2nc(C3CC3)cc(C(F)(F)F)n2n1 | activity change, negative = activation | 4
COc1ccc(NC(=O)c2ccco2)cc1NC(=O)c1cccc(OC(C)C)c1 | activity change, negative = activation | 6.55
O=C(NCCc1ccc(Cl)cc1)c1cccnc1 | activity change, negative = activation | 4.3
CCCc1cc(=O)[nH]c(SCC(=O)N(C)CC(=O)Nc2ccccc2CC)n1 | activity change, negative = activation | 17.6
CCc1cc(Cn2nc(-c3ccccc3)cc2C(=O)NCc2cccc(C(F)(F)F)c2)on1 | activity change, negative = activation | -152
Cc1cc(Cn2nc(-c3ccccc3)cc2C(=O)NCc2cccc(C(F)(F)F)c2)on1 | activity change, negative = activation | -125
CCOc1ccccc1NC(=O)N1CCC(NC(=O)c2cccc(C)c2)CC1 | activity change, negative = activation | 2
O=C1CC(c2ccco2)Sc2nc3ccccc3n21 (stereo not drawn) | activity change, negative = activation | 19.9
O=C(Nc1ccc(Cl)cc1)N1CCC(c2nc(-c3ccccc3Cl)no2)CC1 | activity change, negative = activation | -9.8
COC(=O)C[C@H](NC(=O)Cn1cnc2c(NCc3ccccc3)ncnc21)C(=O)OC | activity change, negative = activation | 2.95

---

System: intestinal alkaline phosphatase [Mus musculus]
Assay: mouse intestinal phosphatase enzyme activation – biochemical, luminescence, single concentration, confirmation (AID 434970)
Settings: purified mouse IAP, CDP-Star luminescence, 30 min, at 10 µM
Among all 11,000 compounds or so, about 310 (2.8%) were called active. Rule as the data show it: active = activity change below about -85%; inactive = the rest. Shown is part of a subset that was picked to be rich in actives.
Outcomes: t for active, f for inactive

Compound | Label Value
C#CCOCCOCCOCCNc1nc(N2CCN(C(=O)CCCCCCCCCCNC(=O)[C@H]([C@@H](C)CC)n3cc(CCCCCN)nn3)CC2)nc(N2CCN(C(=O)CCCCCCCCCCNC(=O)[C@H]([C@@H](C)CC)n3cc(CCCCN=C(N)N)nn3)CC2)n1 | t
COc1cccc(CNC(=O)c2ccc(NC(=O)C3CCCO3)cc2)c1 (stereo not given) | f
COC(=O)CCN(C(=O)C1C2CC3CC(C2)CC1C3)c1ccccn1 (stereo not given) | f
COc1ccc(CNC(=O)C[C@H]2C[C@H](C(=O)N3CCOCC3)[C@@]3(CCC4CCCC4)c4[nH]c5cc(CCC(=O)N(C)C)ccc5c4CCN3C2=O)cc1OC | f
CC(C)CC(c1nnnn1Cc1cccs1)N1CCN(c2nc3ccccc3s2)CC1 (stereo not given) | f

---

System: intestinal alkaline phosphatase [Mus musculus]
Assay: mouse intestinal phosphatase enzyme activation – biochemical, luminescence, single concentration, confirmation (AID 434970)
Conditions: purified mouse IAP, CDP-Star luminescence, 30 min, at 10 µM; measured here: IAP activation factor, stronger effect = higher value
Out of some 11,000 compounds screened, about 310 (2.8%) were called active. The sample holds actives, similar compounds and a random draw of the others, so the mix is not that of the screen.

Molecule | activation factor
O=C(NC1CCCC1)C(c1ccc(F)cc1)N(Cc1ccc(F)cc1)C(=O)c1ccn[nH]1 (stereo not given) | 2.05
CNC[C@H]1Oc2ccc(NC(=O)Nc3ccc4c(c3)OCO4)cc2C(=O)N([C@H](C)CO)C[C@@H]1C | 1.48
C=CCN(C(=O)CNC(=O)c1ccco1)C(C(=O)NC1CCCCC1)c1ccc(F)cc1 (stereo not given) | 1.05
CCOc1ccc(-c2nnc(-c3cccnc3)o2)cc1OCC | 0.916
O=C(Nc1ccc2nc(-c3ccc4nc[nH]c4c3)[nH]c2c1)c1cccs1 | 1.05

---

Test system: intestinal alkaline phosphatase [Mus musculus]
Experiment: mouse intestinal phosphatase enzyme activation – biochemical, luminescence, single concentration, confirmation (AID 434970)
Conditions: purified mouse IAP, CDP-Star luminescence, 30 min, at 10 µM; stronger effect = lower value
The campaign covered roughly 11,000 compounds. About 310 (2.8%) were called active. The entries come from a sample that favours actives as a whole.
Measure: activity change, negative = activation (%)

Molecule | Measure | Unit Tag | Val
O=C(Nc1cccc(Cl)c1)Nc1ccc2c(c1)OCO2 | activity change, negative = activation | % | -146
O=C(NN1C(=O)CSC1=S)C(=O)NN1C(=O)CSC1=S | activity change, negative = activation | % | 91.8
Fc1cccc(NC(=S)NCc2ccc(Cl)cc2)c1 | activity change, negative = activation | % | -30.9
C=CCn1cc(CN2CCC(C(=O)Nc3cccc(-c4cccc(F)c4)c3)CC2)c(C)n1 | activity change, negative = activation | % | -194
COc1ccc(C2C(C(=O)N3CCCC3)c3cc(OC)c(OC)cc3C(=O)N2C)cc1 (configuration not stated) | activity change, negative = activation | % | 1.1
Cc1cc(NC(=O)Nc2cc(C)nn2-c2ccccc2)n(-c2ccccc2)n1 | activity change, negative = activation | % | 0.75
CCOC(=O)N1CCN(S(=O)(=O)c2ccc3c(c2)SCC(=O)N3)CC1 | activity change, negative = activation | % | -6.25
COc1ccc(NC(=O)N2CCCC2C(=O)Nc2ccc(C)c(Cl)c2)cc1 (configuration not stated) | activity change, negative = activation | % | -12.4
O=C(NCCc1ccncc1)Nc1ccc(Cl)cc1 | activity change, negative = activation | % | -8.6
O=C(CSc1nc2cccnc2n1Cc1ccccc1)N1CCCC1 | activity change, negative = activation | % | -7.2
Cc1ccc(NC2=NC(C(=O)Nc3ccc(C)c(C)c3)CC(=O)N2)cc1 (configuration not stated) | activity change, negative = activation | % | 4.15
C=CCn1cc(CN2CCC(C(=O)Nc3cccc(-c4cccc(Cl)c4)c3)CC2)c(C)n1 | activity change, negative = activation | % | -274
CCCc1c(NC(=O)Nc2ccc(F)cc2)cnn1-c1ccc(Cl)cc1 | activity change, negative = activation | % | -142
Cc1ccc2c(c1)N(CCC(=O)NCc1cccs1)C(=O)C(C)O2 (configuration not stated) | activity change, negative = activation | % | -2.7
Cc1cc(NC(=O)Nc2ccc(Cl)cc2)n(-c2ccccc2)n1 | activity change, negative = activation | % | -107
CC(C)CN(C(=O)COC(=O)Cn1cnc2ccccc2c1=O)C1CCS(=O)(=O)C1 (configuration not stated) | activity change, negative = activation | % | 7.25
NCCCCCc1nnc(SCC(=O)c2ccc(Cl)cc2)o1 | activity change, negative = activation | % | -7.9
COC(=O)c1ccccc1NC(=O)Nc1ccc2c(c1)OCO2 | activity change, negative = activation | % | -8
S=C(NCC1COc2ccccc2O1)Nc1ccc(Br)cc1 (configuration not stated) | activity change, negative = activation | % | -68.1
O=C(Nc1cccnc1)Nc1cc(Cl)cc(Cl)c1 | activity change, negative = activation | % | -68.7
COc1ccc(-c2cc(C(=O)Nc3cc(C)nn3-c3ccccc3)no2)cc1 | activity change, negative = activation | % | 7.9
Cc1cc(NC(=O)Nc2ccc(Cl)c(Cl)c2)n(-c2ccccc2)n1 | activity change, negative = activation | % | -179
C=C(C)Cn1c(=O)c2c(nc3n2CCN3c2cccc(Cl)c2C)n(C)c1=O | activity change, negative = activation | % | 7.6
COc1ccc(Cl)cc1C(=O)NCc1cnn(C)c1C | activity change, negative = activation | % | 6.75
Cc1ccc(N=C2NC(=O)CS2)cc1 | activity change, negative = activation | % | 7.5
CCCc1c(NC(=O)Nc2ccc(F)cc2)cnn1-c1ccccc1 | activity change, negative = activation | % | -57.2
C/C(=N\NC(=O)c1nn(C)cc1Br)c1cccc(NC(=O)C2CCCC2)c1 | activity change, negative = activation | % | -3.45
